# test-target: UniProt:O35913
# Sequence (O35913 whole entry): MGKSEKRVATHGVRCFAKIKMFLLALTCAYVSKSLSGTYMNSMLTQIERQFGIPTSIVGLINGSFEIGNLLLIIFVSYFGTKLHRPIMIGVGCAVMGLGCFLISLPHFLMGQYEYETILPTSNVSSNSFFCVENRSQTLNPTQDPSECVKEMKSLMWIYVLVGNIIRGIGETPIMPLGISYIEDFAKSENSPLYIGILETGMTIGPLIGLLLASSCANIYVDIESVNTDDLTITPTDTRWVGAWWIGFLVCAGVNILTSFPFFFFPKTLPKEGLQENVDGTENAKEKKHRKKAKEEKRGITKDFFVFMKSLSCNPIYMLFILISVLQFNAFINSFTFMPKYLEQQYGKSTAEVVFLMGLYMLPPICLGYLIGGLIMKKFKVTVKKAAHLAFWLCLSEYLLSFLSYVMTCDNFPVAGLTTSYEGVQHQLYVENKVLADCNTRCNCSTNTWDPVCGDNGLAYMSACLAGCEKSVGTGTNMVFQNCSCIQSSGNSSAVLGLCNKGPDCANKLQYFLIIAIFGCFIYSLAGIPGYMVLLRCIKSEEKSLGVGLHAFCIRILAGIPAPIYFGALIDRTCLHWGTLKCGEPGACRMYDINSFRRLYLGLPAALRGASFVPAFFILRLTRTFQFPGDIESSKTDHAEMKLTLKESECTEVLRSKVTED
# method-summary: TP_TRANSPORTER: Western in vivo SD rat, liver
# Type: functional, organism-based, Sprague-Dawley
observable: Activity

Here's what some known entries look like.
compound	test-target	Activity
Clc1cc2c(cc1Cl)Oc1cc(Cl)c(Cl)cc1O2 [2,3,7,8-TETRACHLORODIBENZO-P-DIOXIN]	UniProt:O35913	inducer [Decrease]
C=CCSCC=C [DIALLYL SULFIDE]	UniProt:O35913	inducer [+]
OCc1c[nH]c2ccccc12 [INDOLE-3-CARBINOL]	UniProt:O35913	inducer [Decrease]
CC(=O)[C@H]1[C@H](C#N)C[C@H]2[C@@H]3CC=C4C[C@@H](O)CC[C@]4(C)[C@H]3CC[C@@]21C [PREGNENOLONE CARBONITRILE]	UniProt:O35913	inducer [+]
C[C@@H]1C[C@H]2[C@@H]3CCC4=CC(=O)C=C[C@]4(C)[C@@]3(F)[C@@H](O)C[C@]2(C)[C@@]1(O)C(=O)CO [DEXAMETHASONE]	UniProt:O35913	inducer [+]
O=c1cc(-c2ccccc2)oc2ccc3ccccc3c12 [BETA-NAPHTHOFLAVONE]	UniProt:O35913	inducer [Decrease]

Prompt: Please look up its Activity: Clc1ccc(-c2cc(Cl)c(Cl)c(Cl)c2)cc1Cl [POLYCHLORINATED BIPHENYL 126]
Response: inducer [Decrease]
